Molecular target: HvExoI W434F mutant (Hordeum vulgare, UniProt Q9XEI3, W459F)
Assay: Relative rates of hydrolysis of poly-, oligosaccharides and aryl-glycosides
Type: biochemical
Conditions: substance is the substrate, nd = activity not detected
What Activity (relative rate of hydrolysis) was measured for each of the following?
Enter your answer as a number in μmole/min per mg protein; do not include the unit.

Task: What does the record list as Activity (relative rate of hydrolysis) for OC[C@H]1O[C@@H](O[C@H]2[C@H](O)[C@@H](O)[C@H](O[C@H]3[C@H](O)[C@@H](O)[C@H](O[C@H]4[C@H](O)[C@@H](O)[C@H](O[C@H]5[C@H](O)[C@@H](O)C(O)O[C@@H]5CO)O[C@@H]4CO)O[C@@H]3CO)O[C@@H]2CO)[C@H](O)[C@@H](O)[C@@H]1O (some centres unmarked) [Cellopentaose] ?
Output: 1.7

Task: I would be grateful if you could share the reported Activity (relative rate of hydrolysis) for OC[C@H]1O[C@@H](O[C@H]2C(O)O[C@H](CO)[C@@H](O)[C@@H]2O)[C@H](O)[C@@H](O)[C@@H]1O (some centres unmarked) [Sophorose] .
Output: 6.6

Task: Report Activity (relative rate of hydrolysis) for OC[C@H]1O[C@@H](O[C@@H]2[C@@H](O)[C@H](O[C@H]3[C@H](O)[C@@H](CO)OC(O)[C@@H]3O)O[C@H](CO)[C@H]2O)[C@H](O)[C@@H](O)[C@@H]1O (some centres unmarked) [Laminaritriose] please.
Output: 18.4

Task: Item under review: OC[C@H]1O[C@@H](O[C@@H]2[C@@H](O)[C@H](O[C@@H]3[C@@H](O)[C@H](O[C@H]4[C@H](O)[C@@H](CO)OC(O)[C@@H]4O)O[C@H](CO)[C@H]3O)O[C@H](CO)[C@H]2O)[C@H](O)[C@@H](O)[C@@H]1O (some centres unmarked) [Laminaritetraose] . Reported Activity (relative rate of hydrolysis)?
Output: 15.0

Task: Requested field: Activity (relative rate of hydrolysis). Item: OC[C@H]1O[C@@H](O[C@@H]2[C@@H](O)[C@H](O[C@@H]3[C@@H](O)[C@H](O[C@@H]4[C@@H](O)[C@H](O[C@@H]5[C@@H](O)[C@H](O[C@@H]6[C@@H](O)[C@H](O[C@@H]7[C@@H](O)[C@H](O)O[C@H](CO)[C@H]7O)O[C@H](CO)[C@H]6O)O[C@H](CO)[C@H]5O)O[C@H](CO)[C@H]4O)O[C@H](CO)[C@H]3O)O[C@H](CO)[C@H]2O)[C@H](O)[C@@H](O)[C@@H]1O [Laminariheptaose]
Output: 13.5

* * *

Molecular target: HvExoI W434H mutant (Hordeum vulgare, UniProt Q9XEI3, W459H)
Sequence (Q9XEI3 26-630 W459H): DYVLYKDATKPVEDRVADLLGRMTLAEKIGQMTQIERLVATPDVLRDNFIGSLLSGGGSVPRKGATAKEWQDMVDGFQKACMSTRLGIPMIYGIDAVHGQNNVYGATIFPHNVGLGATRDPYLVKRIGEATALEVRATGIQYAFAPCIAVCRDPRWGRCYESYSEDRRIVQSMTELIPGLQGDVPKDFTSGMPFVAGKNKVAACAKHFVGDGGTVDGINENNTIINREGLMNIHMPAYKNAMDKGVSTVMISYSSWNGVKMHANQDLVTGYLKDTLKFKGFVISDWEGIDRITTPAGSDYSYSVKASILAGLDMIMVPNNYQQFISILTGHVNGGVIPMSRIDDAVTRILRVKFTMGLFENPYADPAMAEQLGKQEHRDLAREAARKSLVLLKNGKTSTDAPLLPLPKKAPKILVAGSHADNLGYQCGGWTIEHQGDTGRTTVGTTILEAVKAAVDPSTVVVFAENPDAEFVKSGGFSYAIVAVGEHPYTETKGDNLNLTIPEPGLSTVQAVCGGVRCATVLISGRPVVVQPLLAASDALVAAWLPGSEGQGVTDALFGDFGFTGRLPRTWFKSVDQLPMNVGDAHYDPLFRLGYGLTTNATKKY
Experiment: Relative rates of hydrolysis of poly-, oligosaccharides and aryl-glycosides
Assay type: biochemical
Conditions: substance is the substrate
Please go through the items and note down their Activity (relative rate of hydrolysis).
All answers are understood in μmole/min per mg protein, so give the number only.

Task: For the molecule shown here, OC[C@H]1O[C@@H](O[C@H]2[C@H](O)[C@@H](O)[C@H](O[C@H]3[C@H](O)[C@@H](O)[C@H](O[C@H]4[C@H](O)[C@@H](O)C(O)O[C@@H]4CO)O[C@@H]3CO)O[C@@H]2CO)[C@H](O)[C@@H](O)[C@@H]1O (stereo partly drawn) , give the reported Activity (relative rate of hydrolysis).
Output: 0.2

Task: For the molecule O=[N+]([O-])c1ccc(O[C@@H]2O[C@H](CO)[C@@H](O[C@@H]3O[C@H](CO)[C@@H](O)[C@H](O)[C@H]3O)[C@H](O)[C@H]2O)cc1 [4NP-cellobioside] , what Activity (relative rate of hydrolysis) is on record?
Output: 0.04

Task: Item OC[C@H]1O[C@@H](O[C@@H]2[C@@H](O)[C@H](O[C@@H]3[C@@H](O)[C@H](O[C@H]4[C@H](O)[C@@H](CO)OC(O)[C@@H]4O)O[C@H](CO)[C@H]3O)O[C@H](CO)[C@H]2O)[C@H](O)[C@@H](O)[C@@H]1O (stereo partly drawn) has what recorded Activity (relative rate of hydrolysis)?
Output: 1.4

Task: Reported Activity (relative rate of hydrolysis), molecule OC[C@H]1O[C@@H](O[C@@H]2[C@@H](O)[C@H](O[C@@H]3[C@@H](O)[C@H](O[C@@H]4[C@@H](O)[C@H](O[C@@H]5[C@@H](O)[C@H](O)O[C@H](CO)[C@H]5O)O[C@H](CO)[C@H]4O)O[C@H](CO)[C@H]3O)O[C@H](CO)[C@H]2O)[C@H](O)[C@@H](O)[C@@H]1O : ____
Output: 1.5

Task: Requested field: Activity (relative rate of hydrolysis). Item: O=[N+]([O-])c1ccc(O[C@@H]2O[C@H](CO)[C@@H](O)[C@H](O)[C@H]2O)cc1 [4NP-Glc, 4-nitrophenyl β-D-glucopyranoside]
Output: 2.4

Task: Entry OC[C@H]1O[C@@H](O[C@H]2[C@H](O)[C@@H](O)[C@H](O[C@H]3[C@H](O)[C@@H](O)[C@H](O[C@H]4[C@H](O)[C@@H](O)[C@H](O[C@H]5[C@H](O)[C@@H](O)[C@H](O[C@H]6[C@H](O)[C@@H](O)C(O)O[C@@H]6CO)O[C@@H]5CO)O[C@@H]4CO)O[C@@H]3CO)O[C@@H]2CO)[C@H](O)[C@@H](O)[C@@H]1O (stereo partly drawn) has what Activity (relative rate of hydrolysis)?
Output: 0.3

Task: Returns the measured Activity (relative rate of hydrolysis) for the input molecule. Input: OC[C@H]1O[C@@H](O[C@H]2[C@H](O)[C@@H](O)[C@H](O[C@H]3[C@H](O)[C@@H](O)[C@H](O[C@H]4[C@H](O)[C@@H](O)[C@H](O[C@H]5[C@H](O)[C@@H](O)C(O)O[C@@H]5CO)O[C@@H]4CO)O[C@@H]3CO)O[C@@H]2CO)[C@H](O)[C@@H](O)[C@@H]1O (stereo partly drawn)
Output: 0.2

Task: Look up Activity (relative rate of hydrolysis): OC[C@H]1O[C@@H](O[C@@H]2[C@@H](O)[C@H](O[C@@H]3[C@@H](O)[C@H](O[C@@H]4[C@@H](O)[C@H](O[C@@H]5[C@@H](O)[C@H](O[C@H]6[C@H](O)[C@@H](CO)OC(O)[C@@H]6O)O[C@H](CO)[C@H]5O)O[C@H](CO)[C@H]4O)O[C@H](CO)[C@H]3O)O[C@H](CO)[C@H]2O)[C@H](O)[C@@H](O)[C@@H]1O (stereo partly drawn)
Output: 1.5

Task: Requested field: Activity (relative rate of hydrolysis). Item: OC[C@H]1O[C@@H](O[C@H]2[C@H](O)[C@@H](O)[C@H](O[C@H]3[C@H](O)[C@@H](O)C(O)O[C@@H]3CO)O[C@@H]2CO)[C@H](O)[C@@H](O)[C@@H]1O (stereo partly drawn)
Output: 0.3
